Cited source: the Deep4Chem optical property database

Test: solvent given as SMILES
Conditions: in CCO
Recorded metric: emission maximum (nm)
Please reply with the bare figure in nm and do not write the unit itself.

{"Compound": "CN(C)c1ccc2nc(/C=C/c3cc4c5c(c3)CCCN5CCC4)c(=O)oc2c1", "Measurement unit": "nm", "emission maximum": 705}
{"Compound": "N#C[Se]CCCCCOc1ccc2ccc(=O)oc2c1", "Measurement unit": "nm", "emission maximum": 386}
{"Compound": "CCN1\\C(=C/C=C/C=C/C2=[N+](CC)c3ccc4ccccc4c3C2(C)C)C(C)(C)c2c1ccc1ccccc21", "Measurement unit": "nm", "emission maximum": 702}
{"Compound": "Cn1c2cc(N3CCCCC3)c(F)cc2c(=O)c2cc(F)c(N3CCCCC3)cc21", "Measurement unit": "nm", "emission maximum": 455}
{"Compound": "CN(C)c1ccc2c(-c3ccc(C(=O)[O-])cc3C(=O)[O-])c3ccc(=[N+](C)C)cc-3oc2c1", "Measurement unit": "nm", "emission maximum": 569}
{"Compound": "CC1(C)Nc2cc3nc4cc(Br)c(Br)cc4nc3cc2N1", "Measurement unit": "nm", "emission maximum": 508}
{"Compound": "N#CC(C#N)=C(/C=C/c1cn(-c2ccccc2)nc1-c1ccccc1)c1ccccc1", "Measurement unit": "nm", "emission maximum": 497}
{"Compound": "NS(=O)(=O)c1ccc(N2N=C(c3ccc(O)cc3)CC2c2ccccc2)cc1 (stereo unspecified)", "Measurement unit": "nm", "emission maximum": 428}

Q: Kindly indicate its recorded emission maximum. Item: "CN(C)c1ccc2nc(/C=C/c3ccccc3)c(=O)oc2c1"
Ans: 574

Q: Quickly give me recorded emission maximum for "c1ccc2c(c1)c1ccccc1c1[nH]c(-c3ccc(-c4nc5c6ccccc6c6ccccc6c5[nH]4)cc3)nc21"
Ans: 461

Q: // fetch emission maximum given entry "CNc1cccc2c1C(=O)c1ccccc1-2"
Ans: 542
